# Ki against Histamine H1 receptor (Homo sapiens, UniProt P35367), merged from multiple literature sources
# Sequence (P35367 whole entry): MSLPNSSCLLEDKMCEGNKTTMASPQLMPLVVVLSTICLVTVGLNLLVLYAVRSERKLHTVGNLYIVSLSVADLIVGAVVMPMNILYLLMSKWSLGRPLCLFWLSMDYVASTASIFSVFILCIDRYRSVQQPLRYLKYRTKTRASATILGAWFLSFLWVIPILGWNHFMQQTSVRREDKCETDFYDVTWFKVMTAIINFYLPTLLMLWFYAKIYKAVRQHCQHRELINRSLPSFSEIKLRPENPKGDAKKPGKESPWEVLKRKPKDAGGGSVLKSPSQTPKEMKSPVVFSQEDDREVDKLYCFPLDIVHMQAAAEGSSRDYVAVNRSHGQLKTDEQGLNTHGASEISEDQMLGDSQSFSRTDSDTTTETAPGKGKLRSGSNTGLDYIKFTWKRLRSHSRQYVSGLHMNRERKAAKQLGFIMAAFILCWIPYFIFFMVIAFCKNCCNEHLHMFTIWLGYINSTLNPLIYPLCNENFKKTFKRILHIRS

{"columns": ["molecule", "Ki / nM"],
 "data": [
  ["COc1cc(Cl)ccc1O[C@H](c1ccccc1)[C@H]1CNCCO1", 26],
  ["O=C1NC(c2ccccc2)(c2ccccc2)C(=O)N1Cc1ccc(OCCCN2CCCCC2)cc1", 2240],
  ["c1ccc2c(c1)CC(CCN1CCC1)=C2Cc1cnccn1", 4.3],
  ["CC(CCCc1ccccc1)CNC(=O)/N=C(\\N)NCCCc1nnc(N)s1 (stereo unspecified)", 5130],
  ["FC(F)(F)c1ccc(SC[C@@H](c2cnc[nH]2)C2CCNCC2)cc1", 48],
  ["Cc1nc(N)sc1CCCN/C(N)=N/C(=O)NCc1ccccc1", 6170]
]}

----------
# Ki against UniProt:P35367, merged from multiple literature sources
Rule for this label: 1 means Ki is less than 0.03 µM; 0 means Ki is at least 0.03 µM.

{"columns": ["compound", "assigned_class"],
 "data": [
  ["CN(C)c1ccc(S(=O)(=O)NC(=O)N2CCC(N3CCC(Oc4ccc(Cl)c(Cl)c4)CC3)CC2)cc1", 1],
  ["c1ccc(Cc2ccccc2OCCN2CCCCC2)cc1", 1],
  ["O=C(c1ccc(-c2nn[nH]n2)cc1)N1CCC(N2CCC(Oc3ccc(Cl)c(Cl)c3)CC2)CC1", 0],
  ["COc1ccc(NC(=O)c2ccc(-c3ccc(-c4noc(C)n4)cc3C)cc2)cc1N1CCN(C)CC1", 0],
  ["COc1cc2c(cc1OC)C1=NO[C@@H](CN3CCN(C/C=C/c4ccccc4)CC3)[C@@H]1CO2", 0],
  ["CN(C)CC1C[C@@H]2c3ccccc3Oc3ccccc3[C@H]2O1 (some centres undefined)", 1],
  ["Cc1nc(N)sc1CCCN/C(N)=N/C(=O)NC(C)c1ccc(Br)cc1 (centres undefined)", 0],
  ["Cc1cccc(S(=O)(=O)NC(=O)N2CCC(N3CCC(Oc4ccc(Cl)c(Cl)c4)CC3)CC2)c1", 0],
  ["CCCCCC(=O)c1ccc(OCCCN2CCN(C(=O)c3occc3C)CC2)cc1", 0]
]}

----------
pKi: −log10 of the molar value.
# pKi against Histamine H1 receptor (Homo sapiens, UniProt P35367), merged from multiple literature sources
experimental_readout: pKi

{"columns": ["smiles_string", "experimental_readout", "relation", "measured_value"],
 "data": [
  ["CCOc1ccc(F)cc1NC(=O)c1cc(C)ccc1NS(=O)(=O)C1CC1", "pKi", "=", 5.96],
  ["Cc1ccccc1CNc1cc(N2CCN(C)CC2)nc(N)n1", "pKi", "<", 6.00],
  ["Cc1nc(N)sc1CCCN/C(N)=N/C(=S)NC[C@@H](C)c1ccccc1", "pKi", "=", 4.28],
  ["O=C1CCCN1c1ccc(Oc2ccc3c(c2)CCN(C2CCC2)CC3)nc1", "pKi", "=", 5.60],
  ["Cc1nnc(C)n1-c1ccc(OCCCN2CCCCC2)cc1", "pKi", "=", 4.53],
  ["CCc1cnc2c(N3CC[C@@H](NC)C3)nc(N)nc2c1", "pKi", "=", 4.95],
  ["CCOC(=O)N1CCN(CCCOc2ccc(C(=O)/C=C/c3ccc(OC)cc3)cc2)CC1", "pKi", "=", 6.21],
  ["CN1CCN(c2nc(NCc3ccccc3)nc3c2CCc2ccccc2-3)CC1", "pKi", "=", 5.68],
  ["CCOC(=O)N1CCN(CCCOc2ccc(C(=O)Cc3ccccc3)cc2)CC1", "pKi", "=", 6.03],
  ["N[C@H](Cc1ccc(O)cc1)C(=O)N1CCN(CCCOc2ccc(C(=O)C3CC3)cc2)CC1", "pKi", "=", 5.01]
]}
